The measured values listed here are drawn from PubChem BioAssay (NCI).

- Tested on: LOX IMVI melanoma
- measurement.notes: NCI-60 one-dose screen, 48 h (100 = growth as untreated, 0 = no growth, -100 = all killed)
- measurement.conditions: 10 µM unless noted
About 83,000 compounds went through this panel and 20% of them were active in at least one assay; those are over-represented in the sample as a whole.
measurement.kind: growth (%)
// units = %; emit number, no label

The cases that follow already have their growth on record.
> print(dat)
                                smiles.text        test.system  numeric.readout
1  CC/C(=C(/c1ccc(Cl)cc1)c1ccc(OCCN)cc1)c1ccccc1  LOX IMVI melanoma             27.8
2  C#CCOc1cccc(/C(N)=N/C(N)=N/c2nc3ccccc3s2)c1  LOX IMVI melanoma            -1.89
3  COc1ccccc1/C=C/C(=O)c1nnn(-c2ccc(F)cc2)c1C  LOX IMVI melanoma             2.13

Consider the compound `NNc1nnc2nc(Nc3ccccc3)nc(Nc3ccc(S(N)(=O)=O)cc3)n12` and give its measured growth.
97.3

Try this compound next: `CN1CCN(CCCCCC(=O)Nc2nc(-c3cccc(NS(=O)(=O)c4cccc5c(N(C)C)cccc45)c3)cs2)CC1`
-84.8

Record: `CCN(CC)CCOc1ccc(C(=C(C)c2ccc(OC)cc2)c2ccc(OCCN(CC)CC)cc2)cc1`
-77.9

Do the same for `O=S(=O)(NCCCNc1nccc(-c2[nH]c(-c3ccccc3)nc2-c2ccc(F)c(O)c2)n1)c1ccccc1` please
83.7

Next: `CCC(=C(c1ccc(OCCN(C)C)cc1)c1ccc(OCCN(C)C)cc1)c1ccc(Cl)cc1`
-98.1

One more compound: `COc1ccc(C(C)=C(c2ccc(OCCN3CCCCCC3)cc2)c2ccc(OCCN3CCCCCC3)cc2)cc1`
-84

---

- System: UO-31 renal
- measurement.notes: NCI-60 one-dose screen, 48 h (100 = growth as untreated, 0 = no growth, -100 = all killed)
- measurement.conditions: 10 µM unless noted
The panel holds about 83,000 compounds, 20% with a hit somewhere; the sample as a whole holds those more often.
Under this convention, condition met denotes growth strictly below 40% and condition not met denotes growth at or above 40%.

Here's an entry: `CC(C)(C)Nc1nc2c(OCCc3ccccc3)cccn2c1-c1cccc(Oc2ccccc2)c1` . Is its growth below 40%?
condition met

Follow-up item: `CC(C)(C)c1cc(NC(=O)Nc2ccc(-c3cn4c5c(sc4n3)CCc3cn(CCCN4CCCCC4)cc3-5)cc2)no1`
condition met

Entry `CCOC(=O)c1c(NC(=O)c2ccc(C(F)(F)F)cc2)sc2c3c(ccc12)OCN(C)C3` please
condition not met

For `CN1CCN(c2ccc(C(=O)/C=C/c3cc(F)cc(C(F)(F)F)c3)cc2)CC1` then?
condition not met

Would you kindly repeat that for `COc1cc2c3c(cc4c5c(ccc4c3c1OC)OCO5)N(CCN(C)C)C2=O` ?
condition met

Note, next up: `COc1ccccc1N1CCN(C2=C(Cl)C(=O)c3ncccc3C2=O)CC1`
condition not met

Another molecule to look at: `Cc1ccc(-c2csc(N/N=C/c3cccs3)n2)cc1`
condition not met

Similarly, `Cc1[nH]c(C(=O)Nc2ccccc2OCc2cccc(C(=O)NCCN)c2)cc1Cl` ?
condition not met

Another molecule to look at: `Cc1csc(/N=C(N)/N=C(\N)c2cccnc2)n1`
condition not met

Same for `COc1cc(C(=O)c2cc(C(C)=O)c3c(C)cccn23)cc(OC)c1OC`
condition not met

---

- Tested on: HS 578T breast
- measurement.notes: NCI-60 one-dose screen, 48 h (100 = growth as untreated, 0 = no growth, -100 = all killed)
- measurement.conditions: 10 µM unless noted
This is part of a sample that, as a whole, favours compounds with a hit. Of some 83,000 tested, about 20% had one in any assay.
measurement.kind: growth (%)
Reply numerically in %, unit not repeated.

See these solved cases before continuing.
compound	growth / %
CCCCCCCCCCCC(=O)NC(C)(C)C(=O)N1CCCC1C(=O)NC(C)(C)C(=O)NC(C)(C)C(=O)N1CCCC1C(=O)NC(C)(C)C(=O)NC(C)(C)C(=O)N1CCCC1C(=O)NC(C)C(=O)NCCC(=O)NC(C)C(=O)NC(C)(C)C(=O)NC(C)(C)C(=O)NC(C)(C)C(=O)NCCC(=O)NC(C)(C)C(=O)NC(C)(C)C(=O)NC(C)(C)C(=O)NC(C)C(=O)NCCC(=O)O (stereo not given)	-69.8
O=C(CCCCCCN1CC(=O)N2[C@@H](c3cccs3)c3[nH]c4ccccc4c3C[C@H]2C1=O)NO	81.1
CC(=C(c1ccc(OCCCN(C)C)cc1)c1ccc(OCCCN(C)C)cc1)c1ccc(Cl)cc1	81.8
COc1ccc2[nH]cc(/C=N/Nc3ccnc4cc(Cl)ccc34)c2c1	-49.6

Okay, next one:
For `O=C1C(SCc2ccccc2)=C(Cl)CN1c1ccccc1` , what is its reported growth?
104

---

- Test system: SF-539 CNS
- measurement.notes: NCI-60 one-dose screen, 48 h (100 = growth as untreated, 0 = no growth, -100 = all killed)
- measurement.conditions: 10 µM unless noted
The panel holds about 83,000 compounds, 20% with a hit somewhere; the sample as a whole holds those more often.
Mark each entry True if its growth sits below 60%, and False for all others.

> print(dat)
                                   molecule  classification
1  CCOC(=O)c1ccc(NC2=C(Cl)C(=O)c3nc(C)ccc3C2=O)cc1            True

Lab log: compare recorded growth with 60%; is it strictly lower for CC(=O)N1N=C(c2cc3ccccc3oc2=O)CC1c1cn(-c2ccccc2)nc1-c1ccc(C)cc1 (stereo not given) ?
False

Now the molecule `CC(C)(C)c1cc(NC(=O)Nc2ccc(-c3cn4c5c(sc4n3)CCc3cn(CCCN4CCCCC4)cc3-5)cc2)no1`
True

Now consider `O=C(/C=C/c1cccc(C(F)(F)F)c1)Nc1cccc(C(F)(F)F)c1` and answer again.
False

---

Recorded growth for the following molecules
- System: HOP-62 NSCLC
- measurement.notes: NCI-60 one-dose screen, 48 h (100 = growth as untreated, 0 = no growth, -100 = all killed)
- measurement.conditions: 10 µM unless noted
This is part of a sample that, as a whole, favours compounds with a hit. Of some 83,000 tested, about 20% had one in any assay.
Numbers only; they are read as %.

Recorded results for 3 molecules are shown here.
> print(dat)
                                smiles.text  numeric.readout
1  COc1ccc(-c2nc(C#N)c(N3CCC(S(=O)(=O)N4CCOCC4)CC3)o2)cc1             99.2
2  CCCCCCNC(=O)Oc1ccc(/C(=C(/C)c2ccc(OC)cc2)c2ccc(OCCN3CCCCCC3)cc2)cc1            -9.29
3    CC1=C(C)C(=O)C(Nc2cccc(C)c2)=C(Br)C1=O             90.7

# context switch: different molecule, same growth
Lab request: please report growth under test system HOP-62 NSCLC for `CCOC(=O)C(=O)Nc1ccc2c(ccn2C(=O)c2cccc(F)c2)c1`
95.9

---

Recorded measurements of growth, one per entry
- Test system: PC-3 prostate
- measurement.notes: NCI-60 one-dose screen, 48 h (100 = growth as untreated, 0 = no growth, -100 = all killed)
- measurement.conditions: 10 µM unless noted
Compounds without any hit were thinned out: in the full panel of roughly 83,000, 20% have a hit.
Numeric answer only, unit % assumed.

> print(dat)
                                smiles.text    test.system  unit.of.measure  numeric.readout
1  C#C[C@]1(O)CC[C@H]2[C@@H]3CC=C4c5sc(N6CCN(C)CC6)nc5CC[C@]4(C)[C@H]3CC[C@@]21C  PC-3 prostate                %             22.4
2  CCOC(=O)C(=O)Nc1ccc2c(ccn2C(=O)c2cccc(F)c2)c1  PC-3 prostate                %             99.6
3  O=c1c2cc(-c3ccc(F)cc3F)ccc2n(O)c(=O)n1-c1cccc(C(F)(F)F)c1  PC-3 prostate                %           -0.871
4  COc1ccc2sc(NC(=O)CCCCCCNC(=O)C(O)(O)C(F)(F)F)nc2c1  PC-3 prostate                %             34.1
5  NC1CC2(CCN(c3cnc(C(=O)Nc4cc(F)cc5cccnc45)cn3)CC2)C1  PC-3 prostate                %             76.6

Tell me the measured growth of `Cc1ccc(NC(=O)Nc2nc3ccc([N+](=O)[O-])cc3s2)cc1` , please.
-1.61

And the next one, `C[C@]12CC[C@H]3[C@@H](CC=C4C[C@@H](O)CC[C@@]43C)[C@@H]1CC[C@@H]2[C@](C)(O)CCc1cccnc1` ?
70.1

Next record, please: `Cc1ccc(/C=N/Nc2nc(Nc3ccccc3)nc(Nc3ccc(S(N)(=O)=O)cc3)n2)cc1`
66.8

Next compound: `COCCOc1ccc2ncc(C#Cc3cncc(C(=O)Nc4ccc(CN5CCN(C)CC5)c(C(F)(F)F)c4)c3)n2n1`
35

Now try `O=C(CCCCCCNC(=O)C(O)(O)C(F)(F)F)Nc1ccc(Cl)cc1` .
35.3

Now consider `C#CCN(C)CCCOc1ccc(NC(=O)CCCCCCC(=O)NO)cc1Cl` and answer again.
26.5

Also, `O=C(N/N=C\c1ccc(F)cc1)c1ccc2nc(-c3ccc(Br)cc3)[nH]c2c1` please.
40.4

Query `CCc1cc2c(cc1Cl)nc1c(=O)[nH]c(=O)nc-1n2CCOCC(C)C` next
68.9

Okay, and `CN1CCN(c2ccc(Nc3nc(NCCNC(=O)c4ccc(F)cc4)c4sccc4n3)cc2)CC1` ?
72.2

Same question for `CC(C)NC(=O)c1cc(-c2ccc(NC(=O)Nc3ccc(F)cc3)cc2)nc2cccnc12` please.
96.7

# iterate: `C#Cc1cc(C(=O)Nc2ccc(CNCCN3CCOCC3)c(C(F)(F)F)c2)ccc1C`
89.3

One more compound: `CC(=O)c1cc(C(=O)N2c3ccccc3Sc3ccccc32)n2c1ccc1ccccc12`
46.1

// query: `CCNC(=O)Oc1ccc(/C(=C(/C)c2ccc(OC)cc2)c2ccc(OCCN3CCCCCC3)cc2)cc1`
31.3

// repeat for `CC1=C(C)C(=O)C(Nc2ccc3c(c2)OCCO3)=C(Br)C1=O` and report
86
